test system: P388 mouse leukemia cells; settings: 92 h
Where a SMILES comes first, the peptide text is derived from it. [ ]: non-standard residue; d: D form. The star is where a group is joined. NHCH2CH2OH = OCCN*; For = O=C*
Kindly supply the reported cell viability/% values for the records listed here.
Report as: number unit

Enquiry: // returns reported cell viability/% for input CNC(=O)C[C@@H](NC(=O)[C@@H](NC(=O)[C@@H](CC(C)C)NC(=O)[C@H](C)NC(=O)[C@@H](CC(C)C)NC(=O)[C@H](C)NC(=O)CNC(=O)[C@@H](NC=O)C(C)C)C(C)C)C(=O)N[C@@H](Cc1c[nH]c2ccccc12)C(=O)N[C@H](CC(C)C)C(=O)N[C@@H](Cc1c[nH]c2ccccc12)C(=O)N[C@H](CC(C)C)C(=O)N[C@@H](Cc1c[nH]c2ccccc12)C(=O)N[C@@H](C(=O)N[C@@H](Cc1c[nH]c2ccccc12)C(=O)NCCO)[C@H](C)O [compound 638] (For-VGA[dL]A[dL]V[dD](NHMe)W[dL]W[dL]W[dT]W-NHCH2CH2OH)
Return: 100.0%

Enquiry: Same again, this time with CC(C)C[C@@H](NC(=O)[C@H](C)NC(=O)CNC(=O)[C@@H](NC=O)C(C)C)C(=O)N[C@@H](C)C(=O)N[C@@H](C(=O)N[C@H](C(=O)N[C@H](CC(C)C)C(=O)N[C@@H](Cc1c[nH]c2ccccc12)C(=O)N[C@@H](C(=O)N[C@@H](Cc1c[nH]c2ccccc12)C(=O)N[C@H](CC(C)C)C(=O)N[C@@H](Cc1c[nH]c2ccccc12)C(=O)N[C@@H](C(=O)N[C@@H](Cc1c[nH]c2ccccc12)C(=O)NCCO)C(C)C)C(C)C)C(C)C)C(C)C [compound 4895] (For-VGA[dL]A[dV]V[dL]W[dV]W[dL]W[dV]W-NHCH2CH2OH)
Return: 48.2%

---

tested on: Streptococcus pyogenes SSI-9; assay: Antibacterial activity assay of bead-derived peptides (three concentrations); assay type: cell-based; parameters: key: +++: inhibition by the 640-fold diluted peptide solution; ++: inhibition by the 160-fold diluted solution; +: inhibition by the 40-fold diluted solution; -: no inhibition; conditions: S. pyogenes, bead-derived peptide solution, three concentrations
Where a SMILES comes first, the peptide text is derived from it. [ ]: non-standard residue; d: D form. The star is where a group is joined. NHCH2CH2OH = OCCN*; For = O=C*
Quantity Measured: antibacterial activity

INSERT INTO results (compound, test_target, value) VALUES
  ('CNC(=O)C[C@@H](NC(=O)[C@@H](NC(=O)[C@@H](CC(C)C)NC(=O)[C@H](C)NC(=O)[C@@H](CC(C)C)NC(=O)[C@H](C)NC(=O)CNC(=O)[C@@H](NC=O)C(C)C)C(C)C)C(=O)N[C@@H](Cc1c[nH]c2ccccc12)C(=O)N[C@H](CC(C)C)C(=O)N[C@@H](Cc1c[nH]c2ccccc12)C(=O)N[C@H](CC(C)C)C(=O)N[C@@H](Cc1c[nH]c2ccccc12)C(=O)N[C@@H](C(=O)N[C@@H](Cc1c[nH]c2ccccc12)C(=O)NCCO)[C@H](C)O [compound 2967] (For-VGA[dL]A[dL]V[dD](NHMe)W[dL]W[dL]W[dT]W-NHCH2CH2OH)', 'Streptococcus pyogenes SSI-9', '-');
